The values you see were collected from patent US12655116B2.

Test system: VERPE
RUN DESCRIPTION: Pre-emergence herbicidal action against VERPE
Format: in vivo, Veronica persica
MEASUREMENT SETUP: dosage 80 g/ha
ASSAY READOUT: Pre-emergence action against VERPE in % (%)
Report the value in % with no unit label.

{"COMPOUND": "CCn1nnnc1NC(=O)c1ccc(C(F)F)c(C(=O)NC2CC2)c1SC", "UNIT TEXT": "%", "Pre-emergence action against VERPE in %": 90}
{"COMPOUND": "CCn1nnnc1NC(=O)c1ccc(C(F)(F)F)c(C(=O)NC)c1C", "UNIT TEXT": "%", "Pre-emergence action against VERPE in %": 100}
{"COMPOUND": "Cc1c(C(=O)Nc2nnnn2C)ccc(C(F)(F)F)c1C(=O)NC(C)C1CC1 (stereo not drawn)", "UNIT TEXT": "%", "Pre-emergence action against VERPE in %": 100}
{"COMPOUND": "CCn1nnnc1NC(=O)c1ccc(C(F)F)c(C(=O)NC2CC2)c1OC", "UNIT TEXT": "%", "Pre-emergence action against VERPE in %": 90}
{"COMPOUND": "CCCNC(=O)c1c(C(F)F)ccc(C(=O)Nc2nnnn2CC)c1Cl", "UNIT TEXT": "%", "Pre-emergence action against VERPE in %": 100}

Please give the measured Pre-emergence action against VERPE in % for this compound: CSc1c(C(=O)Nc2nnnn2C)ccc(C(F)(F)F)c1C(=O)NC(C)C1CC1 (stereo not drawn) 100

Now give it for Cn1nnnc1NC(=O)c1ccc(C(F)F)c(C(=O)NCC#N)c1Cl too. 80

Now give it for CSc1c(C(=O)Nc2nnnn2C)ccc(C(F)F)c1C(=O)NCC1CC1 too. 90
